test target: Gamma-aminobutyric acid receptor subunit alpha-1/beta-3/gamma-2 (Mus musculus) (UniProt P22723+P62812+P63080)
assay method text: Negative allosteric modulation of recombinant mouse alpha1beta3gamma2 GABAA receptor expressed in GFP tagged HEK293 cells at 100 uM by whole-cell voltage clamp electrophysiological analysis
Assay type: cell-based
settings: filed as negative allosteric modulator
The source made the active and inactive calls. The rule behind the calls is not given here.

compound: C[C@]12CC[C@H](c3ccccc3)C[C@H]1CC[C@@H]2O (mixture of isomers)
Activity: Active

compound: O[C@H]1CC[C@H](c2ccc3c(c2)CCC3)CC1
Activity: Active

compound: C[C@]12CC[C@H](c3ccccc3)C[C@H]1CC[C@@H]2OS(=O)(=O)O (mixture of isomers)
Activity: Active

====

test target: Gamma-aminobutyric acid receptor subunit alpha-1/beta-3/gamma-2 (Mus musculus, UniProt P22723+P62812+P63080)
Sequence (P22723 whole entry): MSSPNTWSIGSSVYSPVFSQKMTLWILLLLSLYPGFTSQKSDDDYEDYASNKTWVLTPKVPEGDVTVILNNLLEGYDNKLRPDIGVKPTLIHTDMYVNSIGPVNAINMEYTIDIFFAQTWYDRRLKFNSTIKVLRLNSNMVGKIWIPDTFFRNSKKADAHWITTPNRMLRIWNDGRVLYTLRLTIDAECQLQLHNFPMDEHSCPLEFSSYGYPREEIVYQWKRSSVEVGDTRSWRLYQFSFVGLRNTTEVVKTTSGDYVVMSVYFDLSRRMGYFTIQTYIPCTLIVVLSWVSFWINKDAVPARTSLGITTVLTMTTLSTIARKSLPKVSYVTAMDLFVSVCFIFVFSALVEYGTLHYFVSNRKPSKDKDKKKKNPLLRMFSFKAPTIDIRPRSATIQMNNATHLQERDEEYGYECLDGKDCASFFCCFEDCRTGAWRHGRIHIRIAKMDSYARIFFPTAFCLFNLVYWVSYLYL
Sequence (P62812 whole entry): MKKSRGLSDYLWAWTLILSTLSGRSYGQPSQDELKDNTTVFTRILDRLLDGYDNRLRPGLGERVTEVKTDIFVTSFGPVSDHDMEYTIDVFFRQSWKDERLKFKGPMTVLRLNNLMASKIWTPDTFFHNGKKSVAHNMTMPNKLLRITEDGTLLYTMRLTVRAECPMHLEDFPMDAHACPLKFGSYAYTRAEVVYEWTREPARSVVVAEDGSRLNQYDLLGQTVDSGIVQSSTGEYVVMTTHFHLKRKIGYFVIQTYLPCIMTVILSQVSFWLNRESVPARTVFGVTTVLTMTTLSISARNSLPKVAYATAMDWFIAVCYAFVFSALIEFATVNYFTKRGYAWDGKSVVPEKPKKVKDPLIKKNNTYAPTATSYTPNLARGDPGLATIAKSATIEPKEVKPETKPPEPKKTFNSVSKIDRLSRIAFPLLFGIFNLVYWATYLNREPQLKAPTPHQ
Sequence (P63080 whole entry): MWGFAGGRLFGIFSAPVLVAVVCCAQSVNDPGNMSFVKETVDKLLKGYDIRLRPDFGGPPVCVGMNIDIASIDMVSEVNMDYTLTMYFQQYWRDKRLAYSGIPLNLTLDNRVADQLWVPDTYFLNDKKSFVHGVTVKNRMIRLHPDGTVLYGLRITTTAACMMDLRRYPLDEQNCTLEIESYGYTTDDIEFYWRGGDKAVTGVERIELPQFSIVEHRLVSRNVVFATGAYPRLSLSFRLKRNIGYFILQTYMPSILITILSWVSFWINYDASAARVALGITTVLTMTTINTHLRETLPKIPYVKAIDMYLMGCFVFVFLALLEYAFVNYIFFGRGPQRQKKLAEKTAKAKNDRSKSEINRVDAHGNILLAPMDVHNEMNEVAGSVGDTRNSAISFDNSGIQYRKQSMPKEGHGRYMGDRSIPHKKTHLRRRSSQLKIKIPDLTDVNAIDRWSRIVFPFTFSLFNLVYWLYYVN
assay method text: Negative allosteric modulation of recombinant mouse alpha1beta3gamma2 GABAA receptor expressed in GFP tagged HEK293 cells at steady state current by whole-cell voltage clamp electrophysiological analysis
Type: cell-based
property measured: IC50 (µM)

P: O=S(=O)(O)O[C@H]1CC[C@H](c2ccc3c(c2)CCC3)CC1
Q: C[C@]12CC[C@H](OS(=O)(=O)O)CC1=CCc1cc(Br)ccc12
R: C[C@@]12CC/C(=C/CO)C[C@H]1CCc1ccccc12
[Q] Reorder the records above by IC50 so that values decrease. Please write the labels in the order that was asked for.
[A] P, R, Q

A: O=S(=O)(O)O[C@H]1CC[C@@H](c2ccc3c(c2)CCC3)CC1
B: C[C@@]12CCC(CCO)C[C@H]1CCc1ccccc12 (mixture of isomers)
[Q] Which is greater in IC50, the first item A or the second item B ? Reply with the label of the item you choose.
[A] A
(A: 53 µM, B: 14 µM)

====

test target: Gamma-aminobutyric acid receptor subunit alpha-1/beta-3/gamma-2 (Mus musculus, UniProt P22723+P62812+P63080)
assay method text: Negative allosteric modulation of recombinant mouse alpha1beta3gamma2 GABAA receptor expressed in GFP tagged HEK293 cells at steady state current by whole-cell voltage clamp electrophysiological analysis
Assay type: cell-based
property measured: IC50 (µM)

molecule: C[C@]12CC[C@H](c3ccccc3)C[C@H]1CC[C@@H]2O (mixture of isomers)
IC50, µM: 20

molecule: CC(=O)[C@H]1CC[C@H]2[C@@H]3CC=C4C[C@@H](OS(=O)(=O)O)CC[C@]4(C)[C@H]3CC[C@]12C
IC50, µM: 3.2

molecule: O[C@H]1CC[C@@H](c2ccc3c(c2)CCC3)CC1
IC50, µM: 18

molecule: C[C@]12CC[C@@H](c3ccccc3)C[C@H]1CC[C@@H]2O (relative stereo)
IC50, µM: 21

====

test target: Gamma-aminobutyric acid receptor subunit alpha-1/beta-3/gamma-2 (Mus musculus) (UniProt P22723+P62812+P63080)
assay method text: Negative allosteric modulation of recombinant mouse alpha1beta3gamma2 GABAA receptor expressed in GFP tagged HEK293 cells at 100 uM by whole-cell voltage clamp electrophysiological analysis relative control
Format: cell-based
settings: filed as negative allosteric modulator
property measured: Activity (%)

compound: C[C@]12CC[C@H](c3ccccc3)C[C@H]1CC[C@@H]2O (mixture of isomers)
Activity / %: 100
--
compound: C[C@]12CC[C@@H](c3ccccc3)C[C@H]1CC[C@@H]2O (relative stereo)
Activity / %: 100
--
compound: C[C@@]12CCC(CCOS(=O)(=O)O)C[C@H]1CCc1ccccc12 (mixture of isomers)
Activity / %: 100
--
compound: C[C@@]12CCC(CCO)C[C@H]1CCc1ccccc12 (mixture of isomers)
Activity / %: 100
--
compound: C[C@]12CC[C@H](OS(=O)(=O)O)CC1=CCc1cc(Br)ccc12
Activity / %: 100

The reported measurements were obtained from ChEMBL document CHEMBL6153055.
